biological target: Catechol O-methyltransferase (Rattus norvegicus); experiment: Inhibitory activity against COMT in rat brain; type: tissue-based
Sequence (P22734 whole entry): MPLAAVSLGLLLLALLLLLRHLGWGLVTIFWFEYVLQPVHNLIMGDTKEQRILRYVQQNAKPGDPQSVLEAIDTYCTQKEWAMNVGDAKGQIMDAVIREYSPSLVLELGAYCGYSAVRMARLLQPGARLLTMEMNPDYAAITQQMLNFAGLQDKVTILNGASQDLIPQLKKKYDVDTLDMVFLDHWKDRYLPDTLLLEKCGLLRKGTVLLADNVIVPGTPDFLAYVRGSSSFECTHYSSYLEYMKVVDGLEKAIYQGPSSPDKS
The entries below come with measured IC50 values attached.
# value in nM; strip the unit string

Below, each entry is followed by its recorded IC50 result.
# test-smiles, display-unit, IC50
data = [
    ("O=C(CCc1ccccc1)c1ccc(O)c(O)c1[N+](=O)[O-]", "nM", 4),
    ("O=C(CCCc1ccccc1)c1ccc(O)c(O)c1[N+](=O)[O-]", "nM", 4),
    ("O=C(Cc1ccccc1)c1ccc(O)c(O)c1[N+](=O)[O-]", "nM", 3),
]

Would you kindly look at the next entry?
input: Entry O=C(CCCCc1ccccc1)c1ccc(O)c(O)c1[N+](=O)[O-] has what IC50?
output: 4

These data points were gathered from ChEMBL document CHEMBL1140432.
